SUBJECT OF TEST: T1, TIAM2, Q8IVF5
T1 sequence (Q8IVF5 885-986, limits assumed, looked up): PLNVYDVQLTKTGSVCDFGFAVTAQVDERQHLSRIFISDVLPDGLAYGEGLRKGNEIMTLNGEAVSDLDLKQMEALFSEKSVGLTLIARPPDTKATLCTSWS
METHOD NOTES: holdup assay
Design: key: below the threshold = too weak to quantify, mostly under pKd 3.1 to 4
MEASUREMENT SETUP: plain residues with an end cap or a label only (N-terminal biotin on a linker: ttds)
MEASURE: pKd

1. RLPKIKETTV [FRMPD4, Q14CM0]    below the threshold
2. PVRVCEETSL [OTULIN, Q96BN8]    below the threshold
3. SSLQSLETSV [ATP2B4, P23634]    below the threshold
4. PRVKPQRSKV [PPP1R13L, Q8WUF5]    below the threshold
